# Test system: ACHN renal
# ASSAY_PROTOCOL: NCI-60 one-dose screen, 48 h
# EXPERIMENTAL_SETUP: 10 µM unless noted
This is part of a sample that, as a whole, favours compounds with a hit. Of some 83,000 tested, about 20% had one in any assay. Activity calls are given as the source filed them. How the source made its calls: active means growth percent below 10; inactive means the rest.
Respond using exactly one of the listed classes: Yes for active, No for inactive

COMPOUND: CSCc1ncc(-c2ccc(C(F)(F)F)cc2)c(NC2CCCCCC2)n1
LABEL_CLASS: No
//
COMPOUND: COc1ccc(Oc2[nH]n(C3=Nc4ccccc4Sc4ccccc43)c(=O)c2C#N)cc1
LABEL_CLASS: No
//
COMPOUND: CCN(CC)CCCNc1c2ccc(Cl)cc2nc2ccc(OC)cc12
LABEL_CLASS: Yes
//
COMPOUND: CCN(CCO)CCNc1ccc(C)c2sc3cc(OC)ccc3c(=O)c12
LABEL_CLASS: No
//
COMPOUND: COc1ccccc1C(=O)Nc1cccc(-c2cc(=O)c3c(OC)c(OC)c(OC)cc3o2)c1
LABEL_CLASS: No
//
COMPOUND: N=c1c2c(=O)n3c(nc2nc2sc4ccc(Cl)cc4n12)-c1ccccc1Sc1ccccc1-3
LABEL_CLASS: No
//
COMPOUND: CCN(CC)C(=O)C1(C)CCCC2(C)c3cc(OC(C)=O)ccc3CCC12 (stereo not given)
LABEL_CLASS: No
//
COMPOUND: O=C(/C=C1\C(=O)N(Cc2ccc([N+](=O)[O-])cc2)c2ccccc21)c1ccc(OCCN2CCCCC2)cc1
LABEL_CLASS: Yes
//
COMPOUND: O=C(Nc1cccc(Cn2c(=O)[nH]c3ccc(Oc4ncccn4)cc3c2=O)c1)c1cc(Cl)cc(Cl)c1
LABEL_CLASS: No

Shifting focus to the compound that follows.
stdin: Please share the test call associated with "CC(C)(C)c1ccc(OCCOC(=O)CBr)cc1" .
stdout: No

----------
# Tested on: A498 renal
# ASSAY_PROTOCOL: NCI-60 one-dose screen, 48 h
# EXPERIMENTAL_SETUP: 10 µM unless noted
About 83,000 compounds went through this panel and 20% of them were active in at least one assay; those are over-represented in the sample as a whole. Calls of active or inactive are those of the source. The calls were made as follows: active = growth percent below 10; inactive = the rest.
Respond using exactly one of the listed classes: T for active, F for inactive

Worked examples, 4 molecules total:
MOLECULE: COc1ccc(Cn2cc3c(c2-c2ccc(O)cc2)CCc2cnoc2-3)cc1
LABEL_CLASS: T
//
MOLECULE: O=C(N/N=C/c1ccccc1Cl)c1cccc2ccccc12
LABEL_CLASS: F
//
MOLECULE: Cc1ccc(C(C)C)c(OCc2ccc(C(=O)N/N=C/c3cccc(O)c3O)cc2)c1
LABEL_CLASS: F
//
MOLECULE: CNc1ccc(Nc2ccc(S(=O)(=O)O)cc2)c2c1C(=O)c1ccccc1C2=O
LABEL_CLASS: F

stdin: Please share the test call associated with CCOC(=O)C1=C(c2ccccc2)NC(=O)NC1CN1C(=O)c2ccccc2C1=O (stereo not drawn) .
stdout: F

stdin: Please share the test call associated with "COc1cccc2c1nc1cccc(OC)c1[n+]2[O-]" .
stdout: F

stdin: Please share the test call associated with "Cc1c(C(N)=O)sc2c1c(=O)n(Cc1ccccc1)c1nnc(S(C)(=O)=O)n21" .
stdout: F

stdin: Please share the test call associated with "COc1cc2oc(-c3ccc(NC(=O)c4ccccc4)cc3)cc(=O)c2c(OC)c1OC" .
stdout: F

stdin: Please share the test call associated with "COc1nc(OC)nc(-c2cc(C(=O)c3ccc(Br)cc3)n3cc(C)cc(C)c23)n1" .
stdout: F

stdin: Please share the test call associated with "COc1cc(CCNc2cnc3cc(N)cc(N)c3n2)cc(OC)c1" .
stdout: F

stdin: Please share the test call associated with CCCCCCCCCC(C)NC(=O)CCl (stereo not drawn) .
stdout: F

stdin: Please share the test call associated with C/C=C(/C)C(=O)OC1C=C(CO)C(=O)C(OC(=O)/C(C)=C\C)C1C(C)C (stereo not drawn) .
stdout: T
